target: T1, human CTLA-4 (human, UniProt P16410 36-223)
T1 construct: also called huCTLA4
T1 sequence (P16410 36-223): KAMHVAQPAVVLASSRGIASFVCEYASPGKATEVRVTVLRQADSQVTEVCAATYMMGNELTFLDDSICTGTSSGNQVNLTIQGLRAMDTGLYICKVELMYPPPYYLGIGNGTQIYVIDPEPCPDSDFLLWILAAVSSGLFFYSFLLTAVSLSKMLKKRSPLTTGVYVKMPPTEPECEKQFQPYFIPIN
protocol-details: flow cytometry, CHO cells stably expressing CTLA4
Measured Fold change to WT CD80 values are reported for all entries that follow.
Be sure to follow the number with its unit.

binder	Fold change to WT CD80
CD80 IgV-Fc T13R/Q33R/E35D/M38I/M47L/V68M/L85M (Fc fusion, not shown: a dimerising Fc or GST) VIHVTKEVKEVARLSCGHNVSVEELAQTRIYWRKDKKIVLTMMSGDLNIWPEYKNRTIFDITNNLSIMILALRPSDEGTYECVVMKYEKDAFKREHLAEVTLSVKAD	12.6 fold
CD80 IgV-Fc T13R/Q33R/E35D/M47L/V68M/L85M (Fc fusion, not shown: a dimerising Fc or GST) VIHVTKEVKEVARLSCGHNVSVEELAQTRIYWRKDKKMVLTMMSGDLNIWPEYKNRTIFDITNNLSIMILALRPSDEGTYECVVMKYEKDAFKREHLAEVTLSVKAD	7.7 fold
CD80 IgV-Fc T13R/Q33R/E35D/M38I/M47L/V68M/E95V/L97Q (Fc fusion, not shown: a dimerising Fc or GST) VIHVTKEVKEVARLSCGHNVSVEELAQTRIYWRKDKKIVLTMMSGDLNIWPEYKNRTIFDITNNLSIMILALRPSDEGTYECVVLKYEKDAFKRVHQAEVTLSVKAD	11.8 fold

# evaluate next
Data request, read-out Fold change to WT CD80, for CD80 IgV-Fc T13R/Q27L/Q33L/E35D/T41S/M47V/N48K/V68M/L85M (Fc fusion, not shown: a dimerising Fc or GST) VIHVTKEVKEVARLSCGHNVSVEELALTRIYWLKDKKMVLSMMSGDVKIWPEYKNRTIFDITNNLSIMILALRPSDEGTYECVVMKYEKDAFKREHLAEVTLSVKAD 0.1 fold
